Each recorded value in this set is attributed to patent US12617773B2.

Biological target: human CCR6 (Homo sapiens)
Construct: expressed in transfected cells; host or cells: HEK-293
Sequence (P51684 1-374): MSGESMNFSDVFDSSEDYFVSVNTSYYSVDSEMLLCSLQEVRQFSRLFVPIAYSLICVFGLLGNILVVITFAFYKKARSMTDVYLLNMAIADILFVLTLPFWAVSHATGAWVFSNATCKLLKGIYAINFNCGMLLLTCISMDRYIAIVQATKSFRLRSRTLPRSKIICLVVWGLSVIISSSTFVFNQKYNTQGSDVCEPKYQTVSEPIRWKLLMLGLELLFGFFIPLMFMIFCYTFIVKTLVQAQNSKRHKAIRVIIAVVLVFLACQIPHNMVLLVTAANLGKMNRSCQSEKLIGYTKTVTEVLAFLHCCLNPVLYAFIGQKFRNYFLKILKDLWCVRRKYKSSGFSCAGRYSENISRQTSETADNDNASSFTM
Experiment: FLIPR assay (inhibition of CCL20-induced calcium signal)
Assay type: cell-based
Conditions: HEK-293 cells expressing human CCR6; mean values where determined several times; read-out: FLIPR IC50
pIC50: −log10 of the molar value.
Label 0.0 if pIC50 falls below 7; label 1.0 in every other case.

{"molecule": "CC(C)c1ccc([C@](O)(c2cncc(N3CCC[C@@H]3C)c2)C2(C)CN(C)C2)cc1", "study system": "human CCR6 (Homo sapiens)", "group label": 1.0}
{"molecule": "CC(=O)NC(C)(C)C#Cc1cncc([C@@](O)(c2ccc(C(C)C)cc2)C2(C)CN(C)C2)c1", "study system": "human CCR6 (Homo sapiens)", "group label": 0.0}
{"molecule": "CC(C)c1ccc([C@](O)(c2cncc(C#CC(C)(O)c3cc(C(F)F)ncn3)c2)C2(C)CN(C)C2)cc1 (stereo partly drawn)", "study system": "human CCR6 (Homo sapiens)", "group label": 1.0}
{"molecule": "CC(C)c1ccc([C@](O)(c2cncc(C#CC3(S(=O)(=O)N(C)C)CC3)c2)C2(C)CN(C)C2)cc1", "study system": "human CCR6 (Homo sapiens)", "group label": 1.0}
{"molecule": "CC(C)c1ccc([C@](O)(c2cncc(N(C)CCO)c2)C2(C)CN(C)C2)cc1", "study system": "human CCR6 (Homo sapiens)", "group label": 0.0}
{"molecule": "CN1CC(C)(C(O)(c2ccc(OC(F)(F)F)cc2)c2ccc(OCC3COC3)nc2)C1 (stereo not drawn)", "study system": "human CCR6 (Homo sapiens)", "group label": 0.0}
{"molecule": "CC(C)c1ccc([C@](O)(c2cncc(C#CC3(O)CCc4cccnc43)c2)C2(C)CN(C)C2)cc1 (stereo partly drawn)", "study system": "human CCR6 (Homo sapiens)", "group label": 1.0}
{"molecule": "CC(C)c1ccc([C@](O)(c2cncc(CCC(O)c3ccccc3)c2)C2(C)CN(C)C2)cc1 (stereo partly drawn)", "study system": "human CCR6 (Homo sapiens)", "group label": 1.0}
{"molecule": "CC(C)c1ccc([C@](O)(c2cncc(N3CCC(C(F)(F)F)C3)c2)C2(C)CN(C)C2)cc1 (stereo partly drawn)", "study system": "human CCR6 (Homo sapiens)", "group label": 1.0}
